Data provenance is paper PMC3662644.

- targetOrSystem: His-GlnR (Mycobacterium smegmatis (mc2 155?))
- Sequence: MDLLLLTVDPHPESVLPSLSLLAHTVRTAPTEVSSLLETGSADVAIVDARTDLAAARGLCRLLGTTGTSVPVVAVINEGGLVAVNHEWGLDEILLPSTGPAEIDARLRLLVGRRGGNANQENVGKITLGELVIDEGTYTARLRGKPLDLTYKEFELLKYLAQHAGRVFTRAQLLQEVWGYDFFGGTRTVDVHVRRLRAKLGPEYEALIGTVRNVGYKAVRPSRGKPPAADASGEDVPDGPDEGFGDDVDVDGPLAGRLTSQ
- testMethodNotes: EMSA
- details: EMSA: 0.4 ng DIG-labelled DNA, 0-0.9 ug His-GlnR, 0.5 ug poly d(A-T), 25 mM Hepes pH 7.9, 150 mM NaCl, 2.5 mM MgCl2, 37 C, 15 min

| biosequence | binding |
| --- | --- |
| AAGCCGGATCCAGACGTGTGTTTCCGCGGCATCGGGCGACTGTGTGCTCGATGTTTAGACTTTACTGCTTGGTAACCTACGGAGCCGTAGGTTACGGTAGCGTAGGTAGACGAAAGGAGGGTTGCCAATGGCTGTTACCGACGTCCCGGCGTTCGCGCATCTGACCGAAGCCGATATCGAGAACCTGGGTATCGAGC (double strand) [peak 13 MSMEG1886 promoter] | binds |
| AGCTTGCCTACGAGCTCGAGGAGGCGCGGCCCTGGGCGCGCATACAAGATGTCACCGCGACCAAGCAGCCGCGTAAGCGGGCCGCGAAGAAGGCCACGAAAACCACGGAGTAGGGCACAAACCGGCGTGGCGCGTGACATGACCCCGTAACCCGGGCCGTGTCCTGTTAACGAACTCGACACCGCGAACGGCTGCGGGTGAAACATCGGGCTCGCAGCATCCCTCATT (double strand) [peak 21 MSMEG2522 promoter] | binds |
